- tested-on: T1, Human IL-33 Flag®His (human)
- T1 chain: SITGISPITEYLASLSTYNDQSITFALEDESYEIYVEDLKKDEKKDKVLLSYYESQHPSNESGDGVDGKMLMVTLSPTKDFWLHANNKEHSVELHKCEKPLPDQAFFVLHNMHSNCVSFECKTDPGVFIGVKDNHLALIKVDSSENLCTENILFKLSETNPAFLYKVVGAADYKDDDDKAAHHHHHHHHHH
- assay-method-text: cell-based or functional assay
Can you tell me IC50, human ST2 transfected HeLa NFkB luciferase reporter assay for the items I'm about to list?
Give bare numbers, in nM.

The following binders have reported results that may help.
{"binder": "IL330125 IgG1 (antibody, V domains shown, Human IgG1, lambda constant) VH: EVQLVQSGAEVKKPGASVTVSCKASGYSFTDYYIHWVRQAPGQGPEWMGWINPNSGVTDFAQKFLGRVTMTRDTSISTAYMELSRLTSDDTALYYCARVAFVYYDSSAFQYWGKGTLVTVSS VL: LPVLTQPPSVSVSPGQTATITCSADKLGDKYAAWYQQKPGQSPVLVIYQDRKRPSGIPERFSGSNSGNTATLIISGTQAMDEADYYCQAWDSNTGLYVFGTGTKLTVL", "units": "nM", "endpoint-value": 332}
{"binder": "IL330071 IgG1 (antibody, V domains shown, Human IgG1, lambda constant) VH: EVQLVESGAEVKQPGASVKVSCKASGYTFTSYGISWVRQAPGQGLEWMGWISAYNGNTNYAQKLQGRVTMTTDTSTSTAYMELRSLRSDDTAVYYCARRGFYHDAFDIWGRGTTVTVSS VL: AIQLTQSPSSLSASVGDRVTITCRASQGISNYLAWYQQKPGKVPKLLIYAASTLQSGVPSRFSGSGSGTEFTLTISSLQPDDFATYYCQQYNSYSVTFGQGTKVEIK", "units": "nM", "endpoint-value": 226}
{"binder": "IL330126 IgG1 (antibody, V domains shown, Human IgG1, lambda constant) VH: EVQLVQSGAELKKPGASVKVSCKTSGYSFNTYGISWVRQAPGQGLEWMGWVSGDDGNINYAEKFQGRVAMTTDTSTTTAYMELWSLTSDDTAVYYCARVRRGSGWYKNYHYYMDVWGQGTMVTVSS VL: QSVLTQPPSVSVSPGQTASVTCSGDRLGDKYASWYQQKPGQSPVLVIYQDRKRPSGIPERFSGSNSGNTATLTISGTQAMDEADYYCQAWDGSTALFGGGTKLTVL", "units": "nM", "endpoint-value": 245}

Could you now look at the following binder, please?
Memo: IL330020 IgG1 (antibody, V domains shown, Human IgG1, lambda constant) VH: QVQLVQSGAEVKKPGASVKVSCKASGYTFTSYGISWVRQAPGQGLEWMGWISDYQGYTKYAEKFQGRVTMTTDTSTNTAYMELRSLRSDDTAVYYCARLYSSGWIRQYHFDYWGRGTLVTVSS VL: SYELTQPPSVSVSPGQTASITCSGDNLKDKYVSWYQQKPGQAPVLVLYQDRKRPSGIPERFSGSNSGNTATLTISGTQAMDEADYYCQAWDSGTAFGGGTKVTVL , reported IC50, human ST2 transfected HeLa NFkB luciferase reporter assay: 147

Source listed as patent US20200353078A1.
